molecular target: T1, hNPR1-mFc:hANP or hNPR1-hFc:hANP complex (human, UniProt P01160 124-151); experiment: SPR, mAb captured, 25C
T1 construct: also called human NPR1 complexed to ANP
Assignment: determine reported kon for the given binders.
Express it in M⁻¹ s⁻¹; write the number only.

Tell me kon reported for mAb22810 (antibody, human IgG4, V domains shown) VH: EVQLVESGGGLVKPGGSLRLSCVVSGFTFRIYTMNWVRQAPGKGLEWVASISSSSSFINYADSLKGRFTISRDNAQNSLYLQMNSLRAEDTAIYYCARAAGNDVLPGRMDVWGQGTSVTVSS VL: EIVLTQSPGTLSLSPGERATLSCRASQSVSSNYLAWYQQKPGQVPSLLIYGASSRATGIPDRFSGSGSGTDFTLTITRLEPEDFAVYYCQQYGISPWTFGQGTKVEIK
8310

Tell me kon reported for mAb22035 (antibody, human IgG4, V domains shown) VH: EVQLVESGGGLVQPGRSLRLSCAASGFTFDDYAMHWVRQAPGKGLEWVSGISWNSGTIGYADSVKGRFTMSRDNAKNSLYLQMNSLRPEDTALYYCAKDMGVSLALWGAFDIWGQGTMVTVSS VL: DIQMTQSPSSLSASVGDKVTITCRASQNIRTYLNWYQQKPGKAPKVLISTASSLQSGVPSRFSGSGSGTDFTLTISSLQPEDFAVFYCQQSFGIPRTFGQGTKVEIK
179000

All values here come from patent US20240309103A1.
